# System: RXRa DBDmut IVT, anti-RXR (DBD mutation: RXRa K156A/R161A, NR concentration 90 nM)
# MEASUREMENT PROTOCOL: PBM binding z-score (relative to random genomic background probes); higher = stronger binding; sequences stand for … in GC…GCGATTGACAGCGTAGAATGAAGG
OUTCOME MEASURE: PBM binding z-score
One number for each entry.

GCGACTGGGGCAAAGGAGGTTACCATAAGGTTGG = -0.468

Parameter requested: PBM binding z-score. Apply to each item below.
1. ACTAACGGGTCAACGAGGTTATAGCACGCGTATA
2. CCTTACGGGTCACTCCAGGGTATAGCATCGGAGT
3. CCAAGTTGGTCAAGGTCACACACGCTATAGGTAC
4. TCGAGTAGGTTAGGGGCATTCTGAATGGCGTCGA

Ans:
[1.94, 0.964, 2.86, 0.628]

Parameter requested: PBM binding z-score. Apply to each item below.
1. CCTAGTTGGTCATGGTCACACACGCTATAGGTAC
2. GCTTGTAGATCAAGGTTAATAAAGACTAAGCTAA
3. CGTCCAAGGTCAAAGATCAGTGAAGAGATGACGG
4. CGAACTAGGTCATCCAGGACAGTGAATACATTGA

Ans:
1: 0.565; 2: -0.167; 3: 3.73; 4: 2.52

* * *

# Test system: RARb:RXRa (NR concentration 270 nM, RXRa partner concentration 90 nM)
# MEASUREMENT PROTOCOL: PBM binding z-score (relative to random genomic background probes); higher = stronger binding; sequences stand for … in GC…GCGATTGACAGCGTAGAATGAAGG
Task for the reader: assign each of the following sequences its reported PBM binding z-score.
Answers are plain numbers.

AGAATGAGGTTACCAAAGATCACGGAAACGCTTG = 2.15

Parameter requested: PBM binding z-score. Apply to each item below.
1. TAGCCTAGGTCATTCAGGGGCCAATATAGAAAGC
2. CCTACTGGGCCATCAGGTCATTGAAATCAACGTT
3. GCTGTTAGGTCAACTGATGGTCAGCTAAAGCTCG
4. CCGACTGCGGCAAAGGTTACCATACTCAGTACGA
5. GGAACGAGGGCGTTCGAGTTGATAGCATGGCGAT
6. CGTGCTAGGTCAATGGTCAGCTAAAGCAGCTCGC

Ans:
3.93
2.04
4.4
1.82
0.422
3.77

Parameter requested: PBM binding z-score. Apply to each item below.
1. ATCGAAAGGTCGCGAGGTGAGTATACAGAAAGGC
2. CCTAGTGGGCCAAAAAGGTCATTGATGCCGATAA

Ans:
4.48
3.94

Parameter requested: PBM binding z-score. Apply to each item below.
1. CCTTACGGGTCACGAGGTTAGAGCACGACGAGCG
2. CCTCGGAGGCCAGAAGGTCAGAGCTGTCCGCTTT
3. CGGACTAGGTCAAGGACAGTGAATCTCCGCACGC
4. CAGCCCAGGTCAGGGCCAGTATAGGAGGAACGTT
5. ATCTCTATGTAACCAAGTTCAGTGAATGCCGAAC

Ans:
1: 4.6; 2: 2.98; 3: 3.49; 4: 3.45; 5: 0.755

Parameter requested: PBM binding z-score. Apply to each item below.
1. TCTAGTTGGTCAAACGTCACACACTCGAAATGCG
2. TCTTGTAGATCAATAGAGATTAAGAAAGTGCGCT
3. GTTTACGGGTCAAAGGTTATAGCATGAATAGAAT
4. CTACCAAGGTGAACAACGTCGTTGATTACTATTC
5. CAAACTAGGTCAAAGGTCGAAGTCGAGCCAACCA

Ans:
1. 1.2
2. -0.192
3. 4.66
4. 1.68
5. 4.71

* * *

# System: RXRa DBDmut IVT, anti-RXR (DBD mutation: RXRa K156A/R161A, NR concentration 90 nM)
# MEASUREMENT PROTOCOL: PBM binding z-score (relative to random genomic background probes); higher = stronger binding; sequences stand for … in GC…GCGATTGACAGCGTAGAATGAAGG
Values of PBM binding z-score greater than or equal to 0.3 map to T; values below map to F.

Here's what some known entries look like.
TGAATGAGGGTAAAGATCAGGGAACGTGGCGTCG = F
CCTTTCGGGTCACTCCAGGTTATAGCATCGGAGT = T
ATCGAAAGATCGAGGTGAGTATAGAGAAAGGGAA = F
TATTGTAGATCAGCAGGTTAAGAAAGCTGGCCAA = F
TCTTGTAGAGCAACAGGAGGTTAAGAAAGATCGA = F
ACTATTCGTTGAGACGAGGGCAACCGATAGGTTG = T
GTGACTGGGGCATCAGCAGGTTACCATAACTTAA = F
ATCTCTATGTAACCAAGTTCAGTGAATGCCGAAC = T

Q: In plain terms: is recorded PBM binding z-score at least 0.3 for CATACAGGGTCACCTAGGCCAGAGTAGGGACGGC ?
Ans: T

Q: In plain terms: is recorded PBM binding z-score at least 0.3 for CCGACTGTGGCATAAGGTTACCATAAGCCAGCCC ?
Ans: T

Q: In plain terms: is recorded PBM binding z-score at least 0.3 for TCTTATAGGTAAAAGGTGAAAGTCGGTGTGGTAA ?
Ans: T

Q: In plain terms: is recorded PBM binding z-score at least 0.3 for TCTATTAGTTGATTATGGCAACCGAAACAGCGGA ?
Ans: T

* * *

# System: PPARg DBDmut IVT, anti-PPARg (DBD mutation: PPARg1 K132A/R137A, NR concentration 270 nM)
# MEASUREMENT PROTOCOL: PBM binding z-score (relative to random genomic background probes); higher = stronger binding; sequences stand for … in GC…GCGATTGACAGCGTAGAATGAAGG
OUTCOME MEASURE: PBM binding z-score
Answers are plain numbers.

Examples with their reported PBM binding z-score follow.
CCTGCTAGGTCAATAGTCAGCTAAAGCAGCTCGC = -0.649
TCTTGTACATCAGCAGGTTAAGAAAGCTGGCCAA = 0.403
GCGACTGGGGTAAAGCAGGTTACCATAAGGTTGG = -0.991
TCTTGTAGATCTAAGGTTAAGAAAGCCGAAGCCT = -0.213
GCTCGGAGGACAAGGACAGAGCTTTGTCCGTAGA = -0.297
ACTATTAGTTCAGACGAGGGCAACCGATAGGTTG = 0.802
AGTCAAAGTTCACTAGGTAATGTAAGATTCAGCT = 2.13
CCCCGGAGGACAACAGGAGGTCAGAGCTGCCAGA = -1.4

Parameter requested: PBM binding z-score. Apply to each item below.
1. ATCTTTAGGTAACAAGTTCAGTGAAAGAGAGGAC
2. TAACCTAGGTCATGCGGGCCAGTATAGTGTCGGC
3. CAAACTAGGTCACGACAGGTCAAAGTCGAATGAC
4. TTACCAAGGTGAAAAGTCGTTGATGCACGCCTTG
5. CAAACGAGGGCATGAGTTGATAGCAAATGCCGAT
6. GGAACGAGGGCACTCGAGTTGATAGCATGGCGAT

Ans:
1: 1.45; 2: 0.297; 3: 5.24; 4: 0.367; 5: -0.353; 6: -0.728

* * *

# Tested on: VDR:RXRa (NR concentration 270 nM, RXRa partner concentration 90 nM)
# MEASUREMENT PROTOCOL: PBM binding z-score (relative to random genomic background probes); higher = stronger binding; sequences stand for … in GC…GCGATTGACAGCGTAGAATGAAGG
Values of PBM binding z-score greater than or equal to 1 map to 1 (yes); values below map to 0 (no).

Here's what some known entries look like.
AGAACGAGGGCACGCTTAGTTGATAGCAGAGTAG = 1 (yes)
ATCTCTAGGTAACCCAGTTCAGTGAATGCCGAAC = 1 (yes)
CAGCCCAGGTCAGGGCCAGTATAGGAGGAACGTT = 0 (no)
ACTTACGGGTCAACGAGGTTATAGAACGCGTATA = 1 (yes)
CCGACTGGGGCATAATGTTACCATAAGCCAGCCC = 0 (no)

Q: In plain terms: is recorded PBM binding z-score at least 1 for AGTCAAAGTTCCGGACGAGGTAACGTAAAGCACG ?
Ans: 0 (no)

Q: In plain terms: is recorded PBM binding z-score at least 1 for CCTAGTTGGTCATGAGGTCACACACCGGATATGA ?
Ans: 1 (yes)

Q: In plain terms: is recorded PBM binding z-score at least 1 for CCTAGCAGGCCAATCTGGGTCACTCTAGGCTTGA ?
Ans: 0 (no)

Q: In plain terms: is recorded PBM binding z-score at least 1 for CGAACTAGGTCAATGACAGTGAATCTCCGCACGC ?
Ans: 1 (yes)

Q: In plain terms: is recorded PBM binding z-score at least 1 for ACAGGCAGGTGATGAAGGTAACTCAGGCTATCAT ?
Ans: 0 (no)

Data credit: the supplement of paper PMC6555819
